Test system: human anaplastic large cell lymphoma cell line KARPAS-299 cells
experiment notes: Proliferation inhibition, KARPAS-299 cells (CellTiter-Glo)
Assay type: cell-based
condition summary: KARPAS-299, 72 h, 3 days culture
value type: IC50

IC50 measured on C=CC(=O)N1CC[C@@H](Oc2nc(Nc3ccc(N4CCC(N5CCN(C)CC5)CC4)cc3)c(C(N)=O)nc2CC)C1 [test compound B, monomethanesulfonate] = 250 nM

----------
tgt: JAK3 kinase (Homo sapiens, UniProt P52333)
Construct: purchased Carna Bioscience QSS Assist JAK3_MSA kit
Sequence (P52333 whole entry): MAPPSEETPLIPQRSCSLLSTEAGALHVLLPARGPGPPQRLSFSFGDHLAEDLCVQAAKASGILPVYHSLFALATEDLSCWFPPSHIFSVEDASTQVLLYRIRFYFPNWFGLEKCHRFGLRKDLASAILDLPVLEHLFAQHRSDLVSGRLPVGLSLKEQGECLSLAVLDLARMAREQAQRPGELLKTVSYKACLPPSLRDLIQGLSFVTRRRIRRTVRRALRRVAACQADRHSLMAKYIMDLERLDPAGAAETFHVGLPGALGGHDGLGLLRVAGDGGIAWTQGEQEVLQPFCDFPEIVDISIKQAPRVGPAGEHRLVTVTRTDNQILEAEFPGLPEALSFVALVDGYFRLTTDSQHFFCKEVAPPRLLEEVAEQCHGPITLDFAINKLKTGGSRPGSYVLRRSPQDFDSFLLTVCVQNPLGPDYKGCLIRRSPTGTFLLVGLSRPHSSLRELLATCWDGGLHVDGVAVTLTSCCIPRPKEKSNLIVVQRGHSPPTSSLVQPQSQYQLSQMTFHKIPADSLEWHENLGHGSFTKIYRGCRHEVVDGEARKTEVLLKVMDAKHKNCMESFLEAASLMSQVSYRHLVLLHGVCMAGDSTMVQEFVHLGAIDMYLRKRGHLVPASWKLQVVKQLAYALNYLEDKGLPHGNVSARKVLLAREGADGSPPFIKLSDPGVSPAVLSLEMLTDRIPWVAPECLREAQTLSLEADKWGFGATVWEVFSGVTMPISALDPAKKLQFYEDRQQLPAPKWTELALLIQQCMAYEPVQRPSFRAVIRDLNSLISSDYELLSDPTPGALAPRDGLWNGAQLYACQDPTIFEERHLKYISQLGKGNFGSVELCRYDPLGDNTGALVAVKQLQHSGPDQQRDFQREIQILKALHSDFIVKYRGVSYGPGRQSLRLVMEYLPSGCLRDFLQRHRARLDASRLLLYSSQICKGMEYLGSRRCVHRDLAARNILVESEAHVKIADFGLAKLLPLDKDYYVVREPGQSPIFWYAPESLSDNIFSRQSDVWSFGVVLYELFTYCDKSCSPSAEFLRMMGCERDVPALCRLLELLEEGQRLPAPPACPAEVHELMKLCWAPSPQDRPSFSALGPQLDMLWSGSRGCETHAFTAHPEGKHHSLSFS
experiment notes: JAK3 kinase inhibitory activity (QSS Assist JAK3_MSA kit)
Assay type: biochemical
condition summary: 30 min preincubation, ATP 1 mM
value type: IC50 (nM)
Numbers only here, please. The scale is nM.

Field IC50 (system: JAK3 kinase (Homo sapiens, UniProt P52333)) for entry C=CC(=O)N1CC[C@@H](Oc2nc(Nc3ccc(N4CCC(N5CCN(C)CC5)CC4)cc3)c(C(N)=O)nc2CC)C1 [test compound B, monomethanesulfonate] = 0.44

----------
Tested on: human histiocytic lymphoma cell line U-937 cells
experiment notes: Proliferation inhibition, U-937 cells (CellTiter-Glo)
Assay type: cell-based
condition summary: U-937, 72 h, 3 days culture
value type: IC50
Record the result as number plus unit.

IC50 measured on C=CC(=O)N1CC[C@@H](Oc2nc(Nc3ccc(N4CCC(N5CCN(C)CC5)CC4)cc3)c(C(N)=O)nc2CC)C1 [test compound B, monomethanesulfonate] = 0.063 µM

----------
Tested on: human acute myeloid leukemia cell line KG-1 cells
experiment notes: Proliferation inhibition, KG-1 cells (CellTiter-Glo)
Assay type: cell-based
condition summary: KG-1, 72 h, 3 days culture
value type: IC50 (nM)
Numbers only here, please. The scale is nM.

IC50 measured on C=CC(=O)N1CC[C@@H](Oc2nc(Nc3ccc(N4CCC(N5CCN(C)CC5)CC4)cc3)c(C(N)=O)nc2CC)C1 [test compound B, monomethanesulfonate] = 38

The reported numbers originate from patent US20170196859A1.
